These measurements were taken from patent US20230061973A1.

Molecular target: T1, exemplary TAT frataxin fusion molecule (HIV-1, UniProt Q16595 1-210)
T1 construct: in the bridging assays biotinylated and sulfotagged forms were used; also called TAT-FXN fusion molecule; TAT FXN fusion molecule
T1 sequence: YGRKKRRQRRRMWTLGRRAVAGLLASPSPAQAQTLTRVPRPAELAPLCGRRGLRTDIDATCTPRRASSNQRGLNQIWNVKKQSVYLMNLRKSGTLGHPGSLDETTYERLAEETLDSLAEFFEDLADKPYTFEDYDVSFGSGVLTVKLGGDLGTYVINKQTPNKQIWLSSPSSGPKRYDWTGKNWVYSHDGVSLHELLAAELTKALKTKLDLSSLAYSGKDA
Experiment: PK sandwich ELISA in human plasma, antibody as capture, HRP anti-frataxin mAb detection
Here, each record is paired with measured S/N at plasma conc. 25.6 ng/mL data.
Give the figure only, with no unit attached.

{"columns": ["BINDER", "RECORDED VALUE"],
 "data": [
  ["antibody 10-12 (antibody, V domains shown, Rabbit monoclonal) VH: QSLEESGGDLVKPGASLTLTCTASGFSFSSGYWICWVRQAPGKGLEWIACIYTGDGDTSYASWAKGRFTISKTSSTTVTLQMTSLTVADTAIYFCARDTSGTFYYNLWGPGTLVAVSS VL: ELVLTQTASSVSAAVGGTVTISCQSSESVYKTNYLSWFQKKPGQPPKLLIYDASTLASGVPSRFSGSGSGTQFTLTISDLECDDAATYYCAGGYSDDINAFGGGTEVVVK", 31.2]
]}

Data request: Determine its reported S/N at plasma conc. 25.6 ng/mL: antibody 12-10 (antibody, V domains shown, Rabbit monoclonal) VH: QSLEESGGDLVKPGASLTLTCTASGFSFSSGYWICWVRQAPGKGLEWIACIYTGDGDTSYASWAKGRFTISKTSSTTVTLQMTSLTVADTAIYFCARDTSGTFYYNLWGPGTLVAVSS VL: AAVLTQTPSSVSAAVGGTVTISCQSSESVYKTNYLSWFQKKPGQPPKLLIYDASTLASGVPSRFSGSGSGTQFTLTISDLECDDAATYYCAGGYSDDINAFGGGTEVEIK
Data returned: 30.8
